# study-system: recombinant human OX40 (Acro Biosystems, cat. no. OXO-H5224) (human) (UniProt P43489)
# Sequence (P43489 29-216 limits assumed): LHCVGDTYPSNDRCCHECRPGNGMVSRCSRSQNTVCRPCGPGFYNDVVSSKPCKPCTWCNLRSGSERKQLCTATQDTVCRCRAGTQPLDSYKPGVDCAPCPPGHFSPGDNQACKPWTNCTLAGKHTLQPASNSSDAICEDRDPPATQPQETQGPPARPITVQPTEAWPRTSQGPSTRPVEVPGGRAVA
# method-summary: BLI cross-block; competitor (immobilized 1st Ab): IgG1-CD134-SF2
endpoint: corrected association response

{"binder": "IgG1-CD134-ABBV368 (antibody, INN chains, looked up, V domains shown, IgG1) VH: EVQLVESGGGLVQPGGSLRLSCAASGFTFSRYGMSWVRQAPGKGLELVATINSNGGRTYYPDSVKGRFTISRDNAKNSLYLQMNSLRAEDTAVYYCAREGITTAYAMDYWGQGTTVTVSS VL: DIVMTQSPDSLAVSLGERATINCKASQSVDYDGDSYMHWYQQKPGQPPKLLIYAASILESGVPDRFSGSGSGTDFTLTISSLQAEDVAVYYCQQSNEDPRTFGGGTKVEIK", "corrected association response": "0.04 nm"}
{"binder": "IgG1-CD134-RG7888 (antibody, INN chains, looked up, V domains shown, IgG1) VH: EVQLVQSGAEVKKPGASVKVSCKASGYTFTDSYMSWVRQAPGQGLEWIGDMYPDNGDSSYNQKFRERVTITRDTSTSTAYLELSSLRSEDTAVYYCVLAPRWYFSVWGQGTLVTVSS VL: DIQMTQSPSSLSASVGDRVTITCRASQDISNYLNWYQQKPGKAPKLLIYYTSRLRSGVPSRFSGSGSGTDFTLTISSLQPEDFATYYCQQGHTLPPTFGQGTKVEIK", "corrected association response": "0.01 nm"}
{"binder": "IgG1-CD134-MEDI0562 (antibody, INN chains, looked up, V domains shown, IgG1) VH: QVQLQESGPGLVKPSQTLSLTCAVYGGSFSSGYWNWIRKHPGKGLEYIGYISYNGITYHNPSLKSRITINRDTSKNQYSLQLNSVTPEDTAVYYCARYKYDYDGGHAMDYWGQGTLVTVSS VL: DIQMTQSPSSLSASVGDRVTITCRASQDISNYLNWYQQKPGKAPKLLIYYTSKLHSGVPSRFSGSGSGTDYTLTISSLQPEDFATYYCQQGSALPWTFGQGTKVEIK", "corrected association response": "0.01 nm"}

// next item, corrected association response requested
Query block: Query: corrected association response; subject: IgG1-CD134-GBR830 (antibody, INN chains, looked up, V domains shown, IgG1) VH: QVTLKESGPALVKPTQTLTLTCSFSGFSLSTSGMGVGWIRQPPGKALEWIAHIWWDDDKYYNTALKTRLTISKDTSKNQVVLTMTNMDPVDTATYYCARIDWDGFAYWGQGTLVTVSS VL: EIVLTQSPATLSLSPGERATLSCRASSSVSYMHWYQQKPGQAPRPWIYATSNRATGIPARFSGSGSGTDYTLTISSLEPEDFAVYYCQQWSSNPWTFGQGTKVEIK
Result block: 0.19 nm
